Cited source: ChEMBL document CHEMBL1961873

inhibition values, listed per item
# tgt: MAP kinase-activated protein kinase 3 (Homo sapiens)
# condition: at 1 µM
# Description: GSK_PKIS: MAPKAPK3 mean inhibition at 1 uM [Nanosyn]
# value in %; strip the unit string

Below, each entry is followed by its recorded inhibition result.
molecule | tgt | endpoint | endpoint-value
CCc1cccc(NC(=O)Nc2ccc(Oc3ccc4nc(NC(=O)OC)[nH]c4c3)cc2)c1 | MAP kinase-activated protein kinase 3 (Homo sapiens) | inhibition | -3.85
CC1=C(C(=O)Nc2ccc3[nH]ncc3c2)C(c2ccc3ccccc3c2)CC(=O)N1 (stereo not given) | MAP kinase-activated protein kinase 3 (Homo sapiens) | inhibition | 2.13
COc1cc2ncn(-c3cc(O[C@@H](C)c4ccccc4Cl)c(C(N)=O)s3)c2cc1OC | MAP kinase-activated protein kinase 3 (Homo sapiens) | inhibition | 10.9
NC(=O)c1ccc(-c2nc(-c3ccccn3)c(-c3ccc4c(c3)OCO4)[nH]2)cc1 | MAP kinase-activated protein kinase 3 (Homo sapiens) | inhibition | 5.05
O=C(Nc1n[nH]c2nc(-c3ccco3)c(Br)cc12)C1CC1 | MAP kinase-activated protein kinase 3 (Homo sapiens) | inhibition | 3.6

Enquiry: Which inhibition reading was recorded for the molecule "COc1cc(C=NNc2ncnc3c2cnn3-c2ccccc2)ccc1O" ?
Return: -2.84

Enquiry: Which inhibition reading was recorded for the molecule "CCn1c(-c2nonc2N)nc2cncc(C(=O)N3CCNCC3)c21" ?
Return: 10.7

Enquiry: Which inhibition reading was recorded for the molecule "CCn1c(-c2nonc2N)nc2cnc(Oc3cccc(NC(=O)c4ccc(OCCN5CCOCC5)cc4)c3)cc21" ?
Return: 3.54

Enquiry: Which inhibition reading was recorded for the molecule "O=C1NC(=O)C(c2ccccc2Cl)=C1Nc1cccc(O)c1" ?
Return: 1.77

Enquiry: Which inhibition reading was recorded for the molecule "CN1CCC(C(=O)Nc2n[nH]c3nnc(-c4ccccc4)cc23)CC1" ?
Return: -1.95
